Please respond with reported pIC50 for every item in the list.
Molecular target: BRD4-BD1 (Homo sapiens (Human))
Assay: BRD4 AlphaScreen assay, BRD4-BD1
Assay type: binding
Conditions: biotin-labeled tetra-acetylated histone H4 peptide, 75 min, room temperature, read-out: BRD4 BD-1 enzyme IC50
pIC50: −log10 of the molar value. Where a name gives a salt, the structure may show the parent alone.

Record for Cc1cc2c(cc(NC3CCCCC3)c3nnc(C)n32)n1Cc1ccccc1 under target or system BRD4-BD1 (Homo sapiens (Human)): pIC50 reported as 6.00 to 7.00

Record for Cc1nnc2ccc3c(cc(C(=O)NCC(C)C)n3Cc3ccccc3)n12 [Example 125, Trifluoroacetate] under target or system BRD4-BD1 (Homo sapiens (Human)): pIC50 reported as 6.00 to 7.00

Record for Cc1ccc(Cn2c(C)cc3c2ccc2nnc(C)n23)cc1 under target or system BRD4-BD1 (Homo sapiens (Human)): pIC50 reported as ≥ 7.00

Record for Cc1cc2c(ccc3nnc(C)n32)n1Cc1ccccc1Cl under target or system BRD4-BD1 (Homo sapiens (Human)): pIC50 reported as 6.00 to 7.00

Record for Cc1nnc2ccc3c(cc(-c4ccn(C5(CC#N)CN(C)C5)n4)n3Cc3ccccc3)n12 under target or system BRD4-BD1 (Homo sapiens (Human)): pIC50 reported as ≥ 7.00

Record for Cc1cc2c(ccc3nnc(C)n32)n1Cc1cccc(CN2CCC2)c1 under target or system BRD4-BD1 (Homo sapiens (Human)): pIC50 reported as ≥ 7.00

Record for Cc1cc2c(cc(NC3CCCN(C)C3)c3nnc(C)n32)n1Cc1ccccc1 (racemic) under target or system BRD4-BD1 (Homo sapiens (Human)): pIC50 reported as ≥ 7.00

Record for Cc1cc2c(ccc3nnc(C)n32)n1Cc1cccc(C(=O)NO)c1 [Example 31, Trifluoroacetate Salt] under target or system BRD4-BD1 (Homo sapiens (Human)): pIC50 reported as 6.00 to 7.00

Record for COCCNc1cc2c(cc(C)n2Cc2ccccc2)n2c(C)nnc12 under target or system BRD4-BD1 (Homo sapiens (Human)): pIC50 reported as ≥ 7.00

----------
Target: BRD4-BD2 (Homo sapiens (Human))
Assay: BRD4 AlphaScreen assay, BRD4-BD2
Conditions: biotin-labeled tetra-acetylated histone H4 peptide, 75 min, room temperature, read-out: BRD4 BD-2 enzyme IC50
pIC50: −log10 of the molar value. Counter-ions that a name gives are not always drawn.
ENDPOINT LABEL: pIC50

Query Cc1nnc2ccc3c(cc(-c4ccn(C(C)CC#N)n4)n3Cc3ccccc3)n12 (racemic) [Example 87, Trifluoroacetate Salt] yields pIC50 of ≥ 7.00

Query CCn1ccc(-c2cc3c(ccc4nnc(C)n43)n2Cc2ccccc2)n1 yields pIC50 of ≥ 7.00

Query Cc1nnc2ccc3c(cc(-c4ccn(CCC(=O)N5CCN(C)CC5)n4)n3Cc3cccc(Cl)c3)n12 yields pIC50 of ≥ 7.00

Query Cc1cc2c(ccc3nnc(C)n32)n1CCc1ccccc1 yields pIC50 of 6.00 to 7.00

Query COc1cccc(Cn2c(C)cc3c2ccc2nnc(C)n23)c1 yields pIC50 of ≥ 7.00

Query CCNC(=O)c1cc2c(ccc3nnc(C)n32)n1Cc1cccc(Cl)c1 [Example 113, Trifluoroacetate Salt] yields pIC50 of ≥ 7.00

Query COc1cc2c(cc(C)n2Cc2ccccc2)n2c(C)nnc12 yields pIC50 of 6.00 to 7.00

Query CNC(=O)c1cc2c(ccc3nnc(C)n32)n1Cc1cc(Cl)cc(CN2CCC2)c1 [Example 131, bis(trifluoroacetate) Salt] yields pIC50 of ≥ 7.00
